# measured-target: SYK kinase (Homo sapiens, UniProt P43405)
assay-readout: IC50 (nM)

In [3]: df
Out[3]:
                                   compound  obs_value
0  Cc1cc(Nc2nc3ccc(-c4cn[nH]c4)cc3n(C)c2=O)ccc1N1CCOCC1 [Example 49]       22.5
1  Cn1c(=O)c(Nc2ccc(N3CCOCC3)cc2)cc2cc(-c3cc[nH]n3)ccc21 [Example 1]       33.8
2  Cn1c(=O)c(Nc2ccc(C(C)(O)C(F)(F)F)cn2)cc2c(F)c(-c3cc[nH]n3)ccc21 (single isomer, unassigned) [Example 24]       12.3
3  Cn1c(=O)c(Nc2ccc(N3CCOCC3)cn2)cc2cc(-c3cc[nH]n3)c(F)cc21 [Example 6]       21.1
